test system: P. falciparum asexual blood stages; assay: microbe, parasite or virus in culture; conditions: Plasmodium falciparum, 3D7, read-out: in vitro IC50 as determined in our experimental setting
pIC50: −log10 of the molar value.
Items are presented alongside their recorded pIC50.
quantity: pIC50

COc1cc(NC(C)CCCN)c2ncccc2c1 (stereo not drawn) [primaquine]
5.52
O=C1C(O)=C([C@H]2CC[C@H](c3ccc(Cl)cc3)CC2)C(=O)c2ccccc21 [atovaquone]
9.00
C[C@@H]1CC[C@H]2[C@@H](C)C(=O)O[C@@H]3O[C@@]4(C)CC[C@@H]1[C@]32OO4 [artemisinin]
7.97

---

assay: Cytotoxicity assay in NCI-H460 (MTT); type: cell-based; conditions: human, NCI-H460 cells, read-out: NCI-H460 inhibition (CC50)
quantity: CC50 at 96 h (µM)

CCN(CC)c1ccc(/C=C/c2cc[n+](CCCCCCCCCC[n+]3ccc(/C=C/c4ccc(N(CC)CC)cc4)c(C)c3)cc2C)cc1
6.76

---

molecular target: CYP2C9 (Homo sapiens, UniProt P11712); test: in vitro
Sequence (P11712 whole entry): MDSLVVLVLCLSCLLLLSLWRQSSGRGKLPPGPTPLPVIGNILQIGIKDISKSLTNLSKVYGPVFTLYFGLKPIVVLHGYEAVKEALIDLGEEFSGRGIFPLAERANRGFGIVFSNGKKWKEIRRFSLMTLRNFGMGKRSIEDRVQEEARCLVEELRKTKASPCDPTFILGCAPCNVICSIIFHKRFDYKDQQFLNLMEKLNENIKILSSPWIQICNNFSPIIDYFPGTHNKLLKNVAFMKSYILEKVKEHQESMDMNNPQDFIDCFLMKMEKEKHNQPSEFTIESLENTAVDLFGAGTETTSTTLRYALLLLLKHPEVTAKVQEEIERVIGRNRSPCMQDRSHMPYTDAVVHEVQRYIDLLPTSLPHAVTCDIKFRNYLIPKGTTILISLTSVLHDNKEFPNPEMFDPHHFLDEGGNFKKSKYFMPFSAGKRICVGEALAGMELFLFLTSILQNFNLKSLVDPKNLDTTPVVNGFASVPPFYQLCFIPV
quantity: inhibition at 0.37 µM (%)

Nc1ccc(S(=O)(=O)Nc2ccnn2-c2ccccc2)cc1
43

---

experiment: Bidirectional permeability in Caco-2 cell monolayer; settings: human, Caco-2
quantity: Papp (×10⁻⁶ cm/s)

COc1cc2c(c(OC)c1OC)-c1ccc(OC)c(=O)cc1[C@@H](NC(C)=O)CC2 [Colchicine]
0.26

---

test: Bidirectional permeability in Caco-2 cell monolayer; conditions: human, Caco-2, Transport through Caco-2 Efflux ratio, reference compounds, tested in parallel
quantity: efflux ratio

COc1cc2c(c(OC)c1OC)-c1ccc(OC)c(=O)cc1[C@@H](NC(C)=O)CC2
35.3

---

target: CYP2D6 (Homo sapiens, UniProt P10635); assay: Cytochrome inhibition assay CYP2D6
Sequence (P10635 whole entry): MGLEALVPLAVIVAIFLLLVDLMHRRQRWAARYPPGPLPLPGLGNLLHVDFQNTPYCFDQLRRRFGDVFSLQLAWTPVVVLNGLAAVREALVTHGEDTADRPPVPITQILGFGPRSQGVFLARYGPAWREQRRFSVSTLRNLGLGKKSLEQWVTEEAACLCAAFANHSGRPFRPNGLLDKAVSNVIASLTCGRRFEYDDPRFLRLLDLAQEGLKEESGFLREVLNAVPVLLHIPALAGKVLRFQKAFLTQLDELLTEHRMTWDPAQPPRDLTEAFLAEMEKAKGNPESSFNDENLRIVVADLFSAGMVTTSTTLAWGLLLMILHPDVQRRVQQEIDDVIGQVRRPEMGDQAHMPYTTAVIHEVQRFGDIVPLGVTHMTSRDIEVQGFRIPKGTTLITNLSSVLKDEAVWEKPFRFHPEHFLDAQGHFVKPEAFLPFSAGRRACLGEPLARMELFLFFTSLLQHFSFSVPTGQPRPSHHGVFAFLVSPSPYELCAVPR
quantity: inhibition at 0.0073 µM

C=C[C@H]1C[N@@]2CC[C@H]1C[C@@H]2[C@@H](O)c1ccnc2ccc(OC)cc12
69%

---

experiment: Cytotoxicity assay in Caco-2 (resazurin); type: cell-based; details: human, read-out: Caco-2 inhibition (CC50)
quantity: CC50 at 48 h (µM)

CCN(CC)c1ccc(/C=C/c2cc[n+](CCCCCCCCCC[n+]3ccc(/C=C/c4ccc(N(CC)CC)cc4)c(C)c3)cc2C)cc1
18.2

---

experiment: Microsomal stability; details: human, microsomes
quantity: microsomal CLint (µL/min/mg)

C[C@]12CC[C@H]3[C@@H](CCC4=CC(=O)CC[C@@]43C)[C@@H]1CC[C@@H]2O
55.6

---

assay: Cytotoxicity assay in A2780 (MTT); type: cell-based; conditions: human, A2780 cells, read-out: A2780 inhibition (CC50)
quantity: CC50 at 96 h (nM)

CCN(CC)c1ccc(/C=C/c2cc[n+](CCCCCCCCCC[n+]3ccc(/C=C/c4ccc(N(CC)CC)cc4)c(C)c3)cc2C)cc1 [YAT2150]
590

---

test: Bidirectional permeability in Caco-2 cell monolayer; details: human, Caco-2, efflux ratios of reference compounds, as quoted in text from Supplementary Table S2
quantity: efflux ratio

COc1cc2c(c(OC)c1OC)-c1ccc(OC)c(=O)cc1[C@@H](NC(C)=O)CC2
33
